Target: T1, human Y2 receptor (human), P49146
T1 chain: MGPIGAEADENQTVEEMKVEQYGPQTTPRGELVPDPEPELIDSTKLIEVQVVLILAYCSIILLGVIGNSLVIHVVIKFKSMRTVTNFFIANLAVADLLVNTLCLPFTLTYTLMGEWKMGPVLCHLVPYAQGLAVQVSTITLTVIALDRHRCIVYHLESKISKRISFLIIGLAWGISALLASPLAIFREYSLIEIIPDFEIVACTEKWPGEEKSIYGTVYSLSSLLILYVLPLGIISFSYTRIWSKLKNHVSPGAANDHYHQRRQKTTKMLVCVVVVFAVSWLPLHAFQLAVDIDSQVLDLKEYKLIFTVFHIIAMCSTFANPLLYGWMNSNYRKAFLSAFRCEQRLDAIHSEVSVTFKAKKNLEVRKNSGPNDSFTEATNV
Test: competition binding, 125I-PYY displaced, COS-7 cells with human Y2
Non-standard residues stand in square brackets, D forms with d. Primed or numbered codes have the meaning given here. No end group written: not given here. Aoc′ = not defined here
EXPERIMENTAL READOUT: IC50
The number alone won't do; follow it with the unit.

Give the reported value of IC50 for this record: YCIK[Aoc′]RH[dC]LNLVTRQRY (cysteine pairing not given here; reading uncertain) [[Cys2, Aoc5-24, D-Cys27]PYY]
870 pM
